# Target under test: rat Somatostatin Receptor (SST), Sstr1 (gene 25033)
# Procedure summary: NVS_GPCR_rSST: NovaScreen (NVS) G Protein-Coupled Receptor Assay for rat Somatostatin Receptor (SST) (AID 2283314)
# Experimental: NVS_GPCR_rSST is a biochemical, single-readout assay that uses extracted gene-proteins from Rat forebrain membranes in a tissue-based cell-free assay. Measurements were taken 1 hour after chemical dosing in a 96-well plate.NVS_GPCR_rSST is one of one assay component(s) measured or calculated from the NVS_GPCR_rSST assay. […] This assay endpoint, NVS_GPCR_rSST, was analyzed in the positive analysis fitting direction relative to DMSO as the negative control and baseline of activity. […]
Inconclusive results are not listed. Calls of active or inactive are those of the source. Rule for the calls: active = hit-call score of the fitted dose curve at least 0.9, where 1 is the maximum; inconclusive = response in the unintended direction; inactive = score below 0.9.
Select the correct class. Options are true (1) for active, false (0) for inactive and nothing else.

Call for entry NCc1cccc(C2CCN(C(=O)c3ccc(C#Cc4ccccc4F)o3)CC2)c1 :
true (1)

Call for entry COc1ccc2cc(S(=O)(=O)N[C@H](CC(=O)N[C@H](Cc3ccc(CN4[C@H](C)CCC[C@@H]4C)cc3)C(=O)N(C)C(C)C)c3ccc4c(c3)OCO4)ccc2c1 :
true (1)

Call for entry CC/C(=C(/CC)c1ccc(O)cc1)c1ccc(O)cc1 :
true (1)

Call for entry O=c1[nH]sc2ccccc12 :
false (0)

Call for entry CN(C)c1ccc(C(=C2C=CC(=[N+](C)C)C=C2)c2ccc(N(C)C)cc2)cc1 :
false (0)

====

# Read-out: E-selectin (Homo sapiens) (UniProt P16581)
# Sequence (P16581 whole entry, looked up): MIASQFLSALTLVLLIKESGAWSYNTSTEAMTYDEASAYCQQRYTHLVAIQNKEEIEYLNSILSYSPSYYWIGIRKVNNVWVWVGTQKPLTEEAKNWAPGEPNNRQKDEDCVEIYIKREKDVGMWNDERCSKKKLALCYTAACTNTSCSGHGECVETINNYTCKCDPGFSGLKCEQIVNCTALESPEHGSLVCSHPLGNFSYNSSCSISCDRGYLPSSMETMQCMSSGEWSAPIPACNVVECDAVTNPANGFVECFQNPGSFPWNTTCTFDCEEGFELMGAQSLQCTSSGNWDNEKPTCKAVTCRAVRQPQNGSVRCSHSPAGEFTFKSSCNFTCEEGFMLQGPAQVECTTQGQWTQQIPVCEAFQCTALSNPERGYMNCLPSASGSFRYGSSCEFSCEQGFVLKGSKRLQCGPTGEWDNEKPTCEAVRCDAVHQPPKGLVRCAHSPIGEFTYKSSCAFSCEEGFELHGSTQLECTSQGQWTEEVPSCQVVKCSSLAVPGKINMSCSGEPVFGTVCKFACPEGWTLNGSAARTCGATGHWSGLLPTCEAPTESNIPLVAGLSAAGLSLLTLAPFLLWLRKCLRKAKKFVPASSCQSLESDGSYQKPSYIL
# Procedure summary: BSK_LPS_Eselectin: BioMAP Diversity Plus: LPS Assay for Eselectin Biomarker Activity (AID 2283077)
# Experimental context: primary human HUVEC with PBMC; actives raise or lower the signal
# Description: BSK_LPS is a cell-based, multiplexed-readout assay that uses umbilical vein endothelium and peripheral blood mononuclear cells, a human vascular primary cell co-culture, with measurements taken at 24 hours after chemical dosing in a 96-well plate.BSK_LPS_Eselectin is an assay component measured in the BSK_LPS assay. It measures E-selectin antibody related to regulation of gene expression using ELISA technology.Data from the assay component BSK_LPS_Eselectin was analyzed into 1 assay endpoint. […]
Calls of active or inactive are those of the source. The calls were made as follows: active = hit-call score of the fitted dose curve at least 0.9, where 1 is the maximum; inactive = score below 0.9.
Select the correct class. Options are active, inactive and nothing else.

Call for entry Cc1cn([C@H]2C[C@H](N=[N+]=[N-])[C@@H](CO)O2)c(=O)[nH]c1=O :
inactive

Call for entry CCO[Si](CCCNC(N)=O)(OCC)OCC :
inactive

Call for entry Clc1cc(Cl)c2c(c1)N=C1CCCCCN1C2 :
inactive

Call for entry CCCOC(=O)c1cc(O)c(O)c(O)c1 :
inactive

Call for entry O=C(Nc1ccc(Cl)cc1)Nc1ccc(Cl)c(Cl)c1 :
active

Call for entry O=C(O)c1ccccc1-n1cc(C(=O)O)c(=O)c2cc(Nc3c(F)cc(F)cc3Cl)c(Cl)cc21 :
inactive

====

# Procedure summary: TOX21_p53_BLA_p2_viability: Viability Assessment in the Tox21 HCT-116 p53 Agonism Beta-lactamase Assay, Phase 2 (AID 2283591);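 note: compound exposure lasted 16 h at 37 °C; actives lower the ATP signal meaning cytotoxicity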
Inconclusive results are not listed. Active and inactive are the calls of the source. The calls were made as follows: active = hit-call score of the fitted dose curve at least 0.9, where 1 is the maximum; inconclusive = response in the unintended direction; inactive = score below 0.9.
Select the correct class. Options are active, inactive and nothing else.

Call for entry Cc1cccc2ccccc12 :
inactive

Call for entry O=C(O)Cn1c(=O)n(Cc2ccc(Br)cc2F)c(=O)c2ccc(Cl)cc21 :
inactive

Call for entry CCN(Cc1cccnc1)C(=O)c1cccc(Cl)c1[C@]1(C)C(=O)N(Cc2ccc(OC)cc2OC)c2ccc(Cl)cc21 :
inactive

Call for entry c1ccc(C[n+]2cccc3ccccc32)cc1 :
inactive

Call for entry Cc1ccc(C(C)C)cc1 :
inactive

Call for entry O=c1ccc2ccccc2o1 :
inactive

Call for entry CC1(C)NC(=O)N(c2ccc([N+](=O)[O-])c(C(F)(F)F)c2)C1=O :
inactive

Call for entry CC(C)(C)c1cc(/C=C2\SC(N)=NC2=O)cc(C(C)(C)C)c1O :
active

Call for entry CC[C@H](NC(=O)c1cc(F)ccc1NS(=O)(=O)c1cccc2cccnc12)c1ccccc1 :
inactive

Call for entry CCCCCCCCCCCO :
inactive

Call for entry O=c1[nH]sc2ccccc12 :
inactive

Call for entry Cc1cn([C@H]2C[C@H](N=[N+]=[N-])[C@@H](CO)O2)c(=O)[nH]c1=O :
inactive

====

# Procedure summary: CEETOX_H295R_PROG_noMTC: CeeTox H295R High-throughput Steroidogenesis Assay for Progesterone (PROG), maximum tolerated concentration (MTC) filtered results only (AID 2283920)
# Experimental context: actives raise or lower the signal
The source made the active and inactive calls. The calls were made as follows: active = hit-call score of the fitted dose curve at least 0.9, where 1 is the maximum; inactive = score below 0.9.
Select the correct class. Options are true (1) (active), false (0) (inactive) and nothing else.

Call for entry CC(C)(O)c1ccc(CNC(=O)c2cccnc2Oc2ccc3nonc3c2)cc1 :
false (0)

Call for entry CC/C(=C(/CC)c1ccc(O)cc1)c1ccc(O)cc1 :
false (0)

Call for entry O=C(O)c1ccccc1C(=O)OCc1ccccc1 :
false (0)

Call for entry CCCCCc1ccc(N)cc1 :
true (1)

====

# Procedure summary: APR_HepG2_MitoMass_24hr: Apredica 24-hour HepG2 Assay for Mitochondrial Mass (AID 2282912)
# Experimental context: high-content imaging, actives raise or lower the signal
Activity calls are given as the source filed them. Rule for the calls: active = hit-call score of the fitted dose curve at least 0.9, where 1 is the maximum; inactive = score below 0.9.
Select the correct class. Options are active, inactive and nothing else.

Call for entry Clc1cc(Cl)c2c(c1)N=C1CCCCCN1C2 :
inactive

Call for entry CCCCCCCCCCCC[N+](C)(C)C :
active

Call for entry CCCCCCCCOC(=O)c1cc(O)c(O)c(O)c1 :
inactive

Call for entry CCOC(=O)O[C@H](C)OC(=O)c1ccc2c(c1)cc(C(=O)NC1CCN(C(C)C)CC1)n2Cc1cc(-c2ccc(Cl)s2)on1 :
active

Call for entry COCC(C)OCC(C)OCC(C)O (stereo unspecified) :
inactive

Call for entry COc1cccc([C@H](O)C2CCN(CCc3ccc(F)cc3)CC2)c1OC :
inactive

====

# Tested on: NCBI gene 100848466
# Procedure summary: NVS_NR_bPR: NovaScreen (NVS) Nuclear Receptor Binding Assay for bovine Progextron Receptor (PR) (AID 2283343)
Records with an inconclusive call do not appear. The source made the active and inactive calls. Rule for the calls: active = hit-call score of the fitted dose curve at least 0.9, where 1 is the maximum; inconclusive = response in the unintended direction; inactive = score below 0.9.
Select the correct class. Options are active, inactive and nothing else.

Call for entry Cc1c2ccccc2c(C)c2c1ccc1ccccc12 :
active

Call for entry CCCCOC(=O)c1ccc(O)cc1 :
inactive

Call for entry CN(C[C@@H](CC[N+]12CCC(C3CCCCC3)(CC1)CC2)c1ccc(Cl)c(Cl)c1)C(=O)c1cc(C(F)(F)F)cc(C(F)(F)F)c1 :
active

====

# Target under test: CCAAT/enhancer-binding protein beta (Homo sapiens)
# Procedure summary: ATG_C_EBP_CIS: Attagene CIS-FACTORIAL HepG2 Assay for human CCAAT/Enhancer Binding Protein (C/EBP) beta (AID 2282927)
# Experimental context: HepG2 Attagene cis-factorial transcription factor reporter; actives raise or lower the signal
Calls of active or inactive are those of the source. Rule for the calls: active = hit-call score of the fitted dose curve at least 0.9, where 1 is the maximum; inactive = score below 0.9.
Select the correct class. Options are True for active, False for inactive and nothing else.

Call for entry CC1=CC(=O)/C(=C(/C)O)C(=O)O1 :
False

Call for entry CN(C)C(=O)C1(N2CCCCC2)CCN(CC[C@@]2(c3ccc(Cl)c(Cl)c3)CN(C(=O)c3ccccc3)CCO2)CC1 :
False

Call for entry COc1cc(C(=O)NC2CCN(C)CC2)ccc1Nc1ncc2c(n1)N(C1CCCC1)CC(F)(F)C(=O)N2C :
True

Call for entry CCCCCc1ccc(N)cc1 :
False

Call for entry O=C(OCCCCCCOC(=O)c1ccccc1)c1ccccc1 :
False

Call for entry CC(C)(O)c1ccc(CNC(=O)c2cccnc2Oc2ccc3nonc3c2)cc1 :
False

Call for entry CC(=O)N1CCN(c2ccc(OC[C@H]3CO[C@](Cn4ccnc4)(c4ccc(Cl)cc4Cl)O3)cc2)CC1 :
False

Call for entry CN(C)c1ccc(C(=C2C=CC(=[N+](C)C)C=C2)c2ccc(N(C)C)cc2)cc1 :
True

Call for entry CC(C)(c1cc(Br)c(O)c(Br)c1)c1cc(Br)c(O)c(Br)c1 :
False

Call for entry CC1(C)NC(=O)N(c2ccc([N+](=O)[O-])c(C(F)(F)F)c2)C1=O :
False

Call for entry C[C@]12CC[C@@H]3c4ccc(O)cc4CC[C@H]3[C@@H]1CCC2=O :
False

Call for entry O=C=NCCCCCCN=C=O :
False

Call for entry Cc1cn([C@H]2C[C@H](N=[N+]=[N-])[C@@H](CO)O2)c(=O)[nH]c1=O :
False

Call for entry CCN(CC)C(=O)c1cc(S(=O)(=O)Cc2ccccc2)c(N2CCC(c3ccccc3)CC2)cc1N(CC)CCN(C)C :
False

Call for entry Oc1ccccc1 :
False

Call for entry O=C(O)Cn1c(=O)n(Cc2ccc(Br)cc2F)c(=O)c2ccc(Cl)cc21 :
False

Call for entry COc1ccc2cc(S(=O)(=O)N[C@H](CC(=O)N[C@H](Cc3ccc(CN4[C@H](C)CCC[C@@H]4C)cc3)C(=O)N(C)C(C)C)c3ccc4c(c3)OCO4)ccc2c1 :
False

Call for entry CCO[Si](CCCNC(N)=O)(OCC)OCC :
False

Call for entry c1ccc(C[n+]2cccc3ccccc32)cc1 :
False

Call for entry O=C1CCC(C2CCCCC2)CC1 :
False

Call for entry Cc1occc1C(=O)Nc1ccc(C(=O)N2CCC(F)(F)/C(=C\C(=O)N3CCC(N4CCCCC4)CC3)c3ccccc32)cc1 :
False

Call for entry Clc1ccccc1C(c1ccccc1)(c1ccccc1)n1ccnc1 :
False
